Measured OD450, listed per entry.
Test Target: T1, human CD22-ECD-His protein (human, UniProt P20273 20-687)
T1 construct: Made in house in HEK293E; also called hCD22-ECD-His; recombinant human CD22-ECD His protein; not shown: His tag
T1 sequence: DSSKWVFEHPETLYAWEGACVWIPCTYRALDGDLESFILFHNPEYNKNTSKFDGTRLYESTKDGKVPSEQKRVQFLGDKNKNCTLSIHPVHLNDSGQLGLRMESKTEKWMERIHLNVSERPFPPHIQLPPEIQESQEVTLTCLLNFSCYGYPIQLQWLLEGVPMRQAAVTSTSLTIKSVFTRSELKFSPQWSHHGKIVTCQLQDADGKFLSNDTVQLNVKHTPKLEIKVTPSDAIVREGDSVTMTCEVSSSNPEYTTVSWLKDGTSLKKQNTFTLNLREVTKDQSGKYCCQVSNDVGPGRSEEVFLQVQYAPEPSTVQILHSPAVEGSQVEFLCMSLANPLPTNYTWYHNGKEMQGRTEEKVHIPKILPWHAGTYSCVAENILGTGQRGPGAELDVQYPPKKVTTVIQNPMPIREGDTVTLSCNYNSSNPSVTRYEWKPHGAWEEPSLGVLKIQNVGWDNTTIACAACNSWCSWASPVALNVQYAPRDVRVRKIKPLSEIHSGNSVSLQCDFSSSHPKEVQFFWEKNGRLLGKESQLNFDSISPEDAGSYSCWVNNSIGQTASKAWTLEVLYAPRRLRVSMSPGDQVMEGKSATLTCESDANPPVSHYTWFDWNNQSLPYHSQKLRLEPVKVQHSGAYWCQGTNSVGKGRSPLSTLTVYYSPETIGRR
Assay Procedure: ELISA, Ab 0.0001 nM
Provide only the numeric value, understood in OD450.

Binder	Property Name	Value
F2.180.16 (antibody, human IgG1, lambda, V domains shown, Human-murine chimeric IgG1, lambda) VH: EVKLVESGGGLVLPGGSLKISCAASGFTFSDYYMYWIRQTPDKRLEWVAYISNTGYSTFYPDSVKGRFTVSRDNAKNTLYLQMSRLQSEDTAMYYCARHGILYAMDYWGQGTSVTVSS VL: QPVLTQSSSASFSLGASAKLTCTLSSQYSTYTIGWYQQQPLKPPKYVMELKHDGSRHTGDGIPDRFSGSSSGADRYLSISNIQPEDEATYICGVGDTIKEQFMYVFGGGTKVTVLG	OD450	0.31

# context switch: different binder, same OD450
Query: Supply reported OD450 belonging to this binder: F2.121.9 (antibody, human IgG1, lambda, V domains shown, Human-murine chimeric IgG1, lambda) VH: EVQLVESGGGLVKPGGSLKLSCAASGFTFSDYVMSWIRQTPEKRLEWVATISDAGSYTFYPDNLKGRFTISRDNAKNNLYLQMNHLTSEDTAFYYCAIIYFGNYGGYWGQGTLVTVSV VL: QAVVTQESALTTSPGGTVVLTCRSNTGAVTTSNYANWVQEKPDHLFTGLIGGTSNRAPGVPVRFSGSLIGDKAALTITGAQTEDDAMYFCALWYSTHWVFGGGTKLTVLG
Result: 0.33
